Test: AUC in rat at 10 mg/kg, po
Format: ADME, organism-based
Design: dose 10 mg/kg, route oral
Details: plasma
Attribute: log10 of AUC
# values: log10(AUC), units µM·h

Here is how some compounds turned out for log10 of AUC.
| compound | log10 of AUC |
| --- | --- |
| Cc1cc(C)cc(-c2[nH]c3sc(C(C)(C)C(=O)N4C5CCC4CC5)cc3c2CCN2CCC(C(=O)N3CCOCC3)CC2)c1 | 1.43 |
| COC1CCN(C(=O)C2CCN(CCc3c(-c4cc(C)cc(C)c4)[nH]c4sc(C(C)(C)C(=O)N5C6CCC5CC6)cc34)CC2)CC1 | 2.55 |
| Cc1cc(C)cc(-c2[nH]c3sc(C(C)(C)C(=O)N4C5CCC4CC5)cc3c2CCN2CCC(OCC(=O)N3CCOCC3)CC2)c1 | -0.28 |
| Cc1cc(C)cc(-c2[nH]c3sc(C(C)(C)C(=O)N4C5CCC4CC5)cc3c2CCN2CCC(C(=O)N3CCCC(O)C3)CC2)c1 (stereo unspecified) | 1.59 |
| Cc1cc(C)cc(-c2[nH]c3sc(C(C)(C)C(=O)N4C5CCC4CC5)cc3c2CCN2CCC(C(=O)N3CCOCC3)C(C)C2)c1 (stereo unspecified) | -0.60 |

For COC1CCN(C(=O)C2CCN(CCc3c(-c4cc(C)cc(C)c4)[nH]c4sc(C(C)(C)C(=O)N5C6CCC5CC6)cc34)CC2)C1 (stereo unspecified) , what is its reported log10 of AUC?
2.28

====

Attribute: solubility
Assay: Solubility in 0.1 M phosphate buffer at pH 7.4
Response body: numeric value in µM, unit text excluded.

For Cc1cc(C)cc(-c2[nH]c3sc(C(C)(C)C(=O)N4C5CCC4CC5)cc3c2[C@H](C)CN/C(=N/C(=O)OC(C)C)N2CCC(c3ccncc3)CC2)c1 , what is its reported solubility?
1.4

Let us now turn to Cc1cc(C)cc(-c2[nH]c3sc(C(C)(C)C(=O)N4CCCC4)cc3c2[C@H](C)CNC(=O)N2CCC(c3ccccc3)C2)c1 (stereo partly specified)
56

Let us now turn to Cc1cc(C)cc(-c2[nH]c3sc(C(C)(C)C(=O)N4C5CCC4CC5)cc3c2CN2CCN(CC(=O)N3CCCC3)CC2)c1
2

====

Assay: Solubility in 0.1 M phosphate buffer at pH 7.4
Lab note: anything with solubility at or over 100 µM counts as class 1; the rest go in class 0.

Please review the entries below; each comes with its answer.
| compound | assigned category |
| --- | --- |
| Cc1cc(C)cc(-c2[nH]c3sc(C(C)(C)C(=O)N4C5CCC4CC5)cc3c2[C@H](C)CNC(=NC(=O)OC(C)C)N2CCC(c3ccncc3)C2)c1 (stereo partly drawn) | class 0 |
| Cc1cc(C)cc(-c2[nH]c3sc(C(C)(C)C(=O)N4C5CCC4CC5)cc3c2CCN2CCN(CC(O)CN3CCNCC3)CC2)c1 (stereo not drawn) | class 1 |
| CC(=O)NC1CCN(C(=O)CN2CCN(CCc3c(-c4cc(C)cc(C)c4)[nH]c4sc(C(C)(C)C(=O)N5C6CCC5CC6)cc34)CC2)C1 (stereo not drawn) | class 1 |

From here, focus on the item given below.
For this compound, is measured solubility 100 µM or higher? CC(=O)N1CCN(CC(O)CN2CCN(CCc3c(-c4cc(C)cc(C)c4)[nH]c4sc(C(C)(C)C(=O)N5C6CCC5CC6)cc34)CC2)CC1 (stereo not drawn)
class 1
